B1: POU domain, class 2, transcription factor 3, residues 186 to 260; numbered along this chain, Q9UKI9 (parent)
chain: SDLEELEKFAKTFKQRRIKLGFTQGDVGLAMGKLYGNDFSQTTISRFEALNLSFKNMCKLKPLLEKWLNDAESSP

Variants of: B1
Assay: abundance fitness (aPCA) (normalised: wild type 0, dead -1); higher = more abundant; growth selection in yeast, the domain comes from the species named
Conditions: Homo sapiens
Cut-off -0.1 on abundance fitness, inclusive. At or above means Fulfilled; below means Not fulfilled.

- Variant: "N69K"
  Group Label: "Not fulfilled"
- Variant: "L64C"
  Group Label: "Not fulfilled"
- Variant: "S45L"
  Group Label: "Not fulfilled"
- Variant: "L63E"
  Group Label: "Not fulfilled"
- Variant: "A71E"
  Group Label: "Fulfilled"
- Variant: "K14A"
  Group Label: "Not fulfilled"
- Variant: "E48H"
  Group Label: "Not fulfilled"
- Variant: "N56E"
  Group Label: "Fulfilled"
- Variant: "I44A"
  Group Label: "Not fulfilled"
